# system tested: B2 bradykinin receptor (Homo sapiens)
# Sequence (P30411 whole entry): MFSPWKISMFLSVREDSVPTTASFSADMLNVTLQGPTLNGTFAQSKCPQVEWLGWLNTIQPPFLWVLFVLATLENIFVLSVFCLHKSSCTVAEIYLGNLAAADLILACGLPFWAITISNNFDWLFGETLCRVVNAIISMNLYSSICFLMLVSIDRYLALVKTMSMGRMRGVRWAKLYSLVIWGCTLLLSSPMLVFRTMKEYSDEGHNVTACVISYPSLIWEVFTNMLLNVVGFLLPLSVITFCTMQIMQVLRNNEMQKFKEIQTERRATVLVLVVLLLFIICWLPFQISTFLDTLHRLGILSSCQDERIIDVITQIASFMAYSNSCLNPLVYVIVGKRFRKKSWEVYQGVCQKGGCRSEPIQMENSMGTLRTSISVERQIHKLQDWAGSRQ
# method: Inhibition specific binding of [3H]BK (1.0 nM) to human Bradykinin receptor B2 which was expressed in CHO (Chinese hamster ovary) cells by 50%.
# Assay type: cell-based
pIC50: −log10 of the molar value.
Item-by-item account of pIC50

# chemical smiles, system tested, readout relation, pIC50
rows = [
    ("Cc1ccc2cccc(OCc3c(Cl)ccc(N(C)C(=O)CNC(=O)/C=C/c4ccc(C(=O)Nc5ccccn5)cc4)c3Cl)c2n1", "B2 bradykinin receptor (Homo sapiens)", "=", 7.52),
    ("CNC(=O)c1ccc(/C=C/C(=O)NCC(=O)N(C)c2ccc(C)c(COc3cccc4c3nc(COC)n4C)c2C)cc1", "B2 bradykinin receptor (Homo sapiens)", "=", 5.04),
    ("CNC(=O)c1ccc(/C=C/C(=O)NCC(=O)N(C)c2ccc(C)c(COc3cccc4c3nc(OC)n4C)c2C)cc1", "B2 bradykinin receptor (Homo sapiens)", "=", 8.14),
    ("CNC(=O)c1ccc(/C=C/C(=O)NCC(=O)N(C)c2ccc(Cl)c(COc3cccc4nc(C)cnc34)c2Cl)cc1", "B2 bradykinin receptor (Homo sapiens)", "=", 5.54),
    ("Cc1ccc2cccc(OCc3c(Cl)ccc(N(C)C(=O)CNC(=O)/C=C/c4ccc(N5CCCC5=O)cc4)c3Cl)c2n1", "B2 bradykinin receptor (Homo sapiens)", "=", 8.49),
    ("CNC(=O)c1ccc(/C=C/C(=O)NCC(=O)N(C)c2ccc(C)c(COc3cccc4c3nc(NC)n4C)c2C)cc1", "B2 bradykinin receptor (Homo sapiens)", "=", 6.17),
    ("Cc1ccc2cccc(OCc3c(Cl)ccc(N(C)C(=O)CNC(=O)/C=C/c4ccc(C(=O)Nc5ccncc5)cc4)c3Cl)c2n1", "B2 bradykinin receptor (Homo sapiens)", "=", 8.74),
    ("CNC(=O)c1ccc(/C=C/C(=O)NCC(=O)N(C)c2ccc(C)c(COc3cccc4ncc(C)nc34)c2C)cc1", "B2 bradykinin receptor (Homo sapiens)", "=", 7.77),
    ("Cc1ccc2cccc(OCc3c(Cl)ccc(N(C)C(=O)CNC(=O)/C=C/c4ccc(C(=O)Nc5cccnc5)cc4)c3Cl)c2n1", "B2 bradykinin receptor (Homo sapiens)", "=", 8.12),
    ("CC(=O)Nc1ccc(/C=C/C(=O)NCC(=O)N(C)c2ccc(C)c(COc3cccc4ncc(C)nc34)c2C)cn1", "B2 bradykinin receptor (Homo sapiens)", "=", 6.89),
    ("CC(=O)Nc1ccc(/C=C/C(=O)NCC(=O)N(C)c2ccc(Cl)c(COc3cccc4ccc(C)nc34)c2Cl)cc1", "B2 bradykinin receptor (Homo sapiens)", "=", 8.72),
    ("CCOc1nc2c(OCc3c(C)ccc(N(C)C(=O)CNC(=O)/C=C/c4ccc(C(=O)NC)cc4)c3C)cccc2n1C", "B2 bradykinin receptor (Homo sapiens)", "=", 6.14),
    ("CNC(=O)c1ccc(/C=C/C(=O)NCC(=O)N(C)c2ccc(Cl)c(COc3cccc4c3nc(-c3ccccc3)n4C)c2Cl)cc1", "B2 bradykinin receptor (Homo sapiens)", "<", 6.00),
    ("Cc1nc2c(OCc3c(Cl)ccc(N(C)C(=O)CNC(=O)/C=C/c4ccc(C(=O)N(C)C)cc4)c3Cl)cccn2c1Br", "B2 bradykinin receptor (Homo sapiens)", "=", 8.66),
    ("CNC(=O)c1ccc(/C=C/C(=O)NCC(=O)N(C)c2ccc(Cl)c(COc3cccc4ccc(C)nc34)c2Cl)cn1", "B2 bradykinin receptor (Homo sapiens)", "=", 8.34),
    ("CNC(=O)c1ccc(/C=C/C(=O)NCC(=O)N(C)c2ccc(C)c(COc3cccc4ccc(C)nc34)c2C)cn1", "B2 bradykinin receptor (Homo sapiens)", "=", 7.24),
    ("COc1nc2c(OCc3c(Cl)ccc(N(C)C(=O)CNC(=O)/C=C/c4ccc(C(=O)N(C)C)cc4)c3Cl)cccc2n1C", "B2 bradykinin receptor (Homo sapiens)", "=", 7.85),
    ("CNC(=O)c1ccc(/C=C/C(=O)NCC(=O)N(C)c2ccc(Cl)c(COc3cccc4ncc(C)nc34)c2Cl)cc1", "B2 bradykinin receptor (Homo sapiens)", "=", 8.28),
    ("CNC(=O)c1ccc(/C=C/C(=O)NCC(=O)N(C)c2ccc(Cl)c(COc3cccc4oc(C)nc34)c2Cl)cc1", "B2 bradykinin receptor (Homo sapiens)", "=", 5.96),
    ("COc1nc2c(OCc3c(Cl)ccc(N(C)C(=O)CNC(=O)/C=C/c4ccc(NC(C)=O)nc4)c3Cl)cccc2n1C", "B2 bradykinin receptor (Homo sapiens)", "=", 8.38),
    ("Cc1ccc2cccc(OCc3c(Cl)ccc(N(C)C(=O)CNC(=O)/C=C/c4ccc(C(=O)Nc5ccccc5)cc4)c3Cl)c2n1", "B2 bradykinin receptor (Homo sapiens)", "=", 7.96),
    ("CNC(=O)c1ccc(/C=C/C(=O)NCC(=O)N(C)c2ccc(Cl)c(COc3cccc4cnc(C)nc34)c2Cl)cc1", "B2 bradykinin receptor (Homo sapiens)", "=", 7.25),
    ("CNC(=O)c1ccc(/C=C/C(=O)NCC(=O)N(C)c2ccc(Cl)c(COc3cccc4c3nc(OC)n4C)c2Cl)cc1", "B2 bradykinin receptor (Homo sapiens)", "=", 8.66),
]

* * *

# system tested: B2 bradykinin receptor (Cavia porcellus)
# Sequence (O70526 whole entry): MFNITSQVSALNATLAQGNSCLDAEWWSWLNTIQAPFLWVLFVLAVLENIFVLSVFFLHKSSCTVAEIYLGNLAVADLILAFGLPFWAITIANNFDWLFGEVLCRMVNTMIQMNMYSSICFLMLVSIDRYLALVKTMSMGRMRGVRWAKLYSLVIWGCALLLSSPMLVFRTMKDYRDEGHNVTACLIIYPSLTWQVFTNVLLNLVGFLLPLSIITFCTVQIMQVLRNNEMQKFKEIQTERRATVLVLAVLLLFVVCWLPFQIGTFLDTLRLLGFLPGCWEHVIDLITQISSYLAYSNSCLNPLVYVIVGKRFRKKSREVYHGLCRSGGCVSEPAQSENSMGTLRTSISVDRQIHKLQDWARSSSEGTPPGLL
# method: Concentration required to inhibit specific binding of [ 3H]BK (0.06 nM) to Bradykinin receptor B2 in guinea pig ileum membrane preparations by 50%.
pIC50: −log10 of the molar value.
measurement kind: pIC50

# chemical smiles, measurement kind, readout relation, assay result
records = [
    ("Cc1ccc2cccc(OCc3c(Cl)ccc(N(C)C(=O)CNC(=O)/C=C/c4ccccc4)c3Cl)c2n1", "pIC50", "=", 9.16),
    ("CNC(=O)c1ccc(/C=C/C(=O)NCC(=O)N(C)c2ccc(C)c(COc3cccc4ccc(C)nc34)c2C)cn1", "pIC50", "=", 8.66),
    ("CC(=O)Nc1ccc(/C=C/C(=O)NCC(=O)N(C)c2ccc(C)c(COc3cccc4ncc(C)nc34)c2C)cn1", "pIC50", "=", 7.32),
    ("Cc1ccc2cccc(OCc3c(Cl)ccc(N(C)C(=O)CNC(=O)/C=C/c4ccc(C(=O)Nc5cccnc5)cc4)c3Cl)c2n1", "pIC50", "=", 9.21),
    ("CNC(=O)c1ccc(/C=C/C(=O)NCC(=O)N(C)c2ccc(C)c(COc3cccc4ccc(C)nc34)c2C)cc1", "pIC50", "=", 9.01),
    ("Cc1ccc2cccc(OCc3c(Cl)ccc(N(C)C(=O)CNC(=O)/C=C/c4ccc(C(=O)N(C)C)cc4)c3Cl)c2n1", "pIC50", "=", 8.89),
    ("CCOc1nc2c(OCc3c(C)ccc(N(C)C(=O)CNC(=O)/C=C/c4ccc(C(=O)NC)cc4)c3C)cccc2n1C", "pIC50", "=", 7.05),
    ("CNC(=O)c1ccc(/C=C/C(=O)NCC(=O)N(C)c2ccc(C)c(COc3cccc4c3nc(NC)n4C)c2C)cc1", "pIC50", "=", 7.03),
    ("Cc1ccc2cccc(OCc3c(Cl)ccc(N(C)C(=O)CNC(=O)/C=C/c4cccnc4)c3Cl)c2n1", "pIC50", "=", 9.10),
    ("Cc1ccc2cccc(OCc3c(C)ccc(N(C)C(=O)CNC(=O)/C=C/c4ccc(N5CCCC5=O)nc4)c3C)c2n1", "pIC50", "=", 8.85),
    ("Cc1ccc2cccc(OCc3c(Cl)ccc(N(C)C(=O)CNC(=O)/C=C/c4ccc(C(=O)Nc5ccccn5)cc4)c3Cl)c2n1", "pIC50", "=", 7.96),
    ("Cc1cnc2cccc(OCc3c(Cl)ccc(N(C)C(=O)CNC(=O)/C=C/c4ccc(N5CCCC5=O)cc4)c3Cl)c2n1", "pIC50", "=", 8.96),
    ("CNC(=O)c1ccc(/C=C/C(=O)NCC(=O)N(C)c2ccc(C)c(COc3cccc4c3nc(C(C)=O)n4C)c2C)cc1", "pIC50", "=", 6.70),
    ("Cc1ccc2cccc(OCc3c(Cl)ccc(N(C)C(=O)CNC(=O)/C=C/c4ccc(N5CCCC5=O)nc4)c3Cl)c2n1", "pIC50", "=", 9.89),
    ("CNC(=O)c1ccc(/C=C/C(=O)NCC(=O)N(C)c2ccc(Cl)c(COc3cccc4cnc(C)cc34)c2Cl)cc1", "pIC50", "<", 5.00),
    ("CNC(=O)c1ccc(/C=C/C(=O)NCC(=O)N(C)c2ccc(C)c(COc3cccc4c3nc(N(C)C)n4C)c2C)cc1", "pIC50", "=", 7.42),
    ("CNC(=O)c1ccc(/C=C/C(=O)NCC(=O)N(C)c2ccc(Cl)c(COCc3cccc(C)n3)c2Cl)cc1", "pIC50", "<", 5.00),
    ("CC(=O)Nc1ccc(/C=C/C(=O)NCC(=O)N(C)c2ccc(C)c(COc3cccc4ccc(C)nc34)c2C)cn1", "pIC50", "=", 9.09),
    ("CNC(=O)c1ccc(/C=C/C(=O)NCC(=O)N(C)c2ccc(Cl)c(COc3cccc4c3nc(OC)n4C)c2Cl)cc1", "pIC50", "=", 9.08),
    ("CC(=O)Nc1ccc(/C=C/C(=O)NCC(=O)N(C)c2ccc(Cl)c(COc3cccc4ncc(C)nc34)c2Cl)cc1", "pIC50", "=", 8.62),
    ("CCc1nc2c(OCc3c(Cl)ccc(N(C)C(=O)CNC(=O)/C=C/c4ccc(C(=O)NC)cc4)c3Cl)cccc2n1C", "pIC50", "=", 8.06),
    ("Cc1cnc2cccc(OCc3c(C)ccc(N(C)C(=O)CNC(=O)/C=C/c4ccc(C(=O)N(C)C)cc4)c3C)c2n1", "pIC50", "=", 8.39),
    ("Cc1ccc2cccc(OCc3c(C)ccc(N(C)C(=O)CNC(=O)/C=C/c4ccc(N5CCCC5=O)cc4)c3C)c2n1", "pIC50", "=", 9.33),
    ("CNC(=O)c1ccc(/C=C/C(=O)NCC(=O)N(C)c2ccc(C)c(COc3cccc4ncc(C)nc34)c2C)cc1", "pIC50", "=", 8.46),
    ("CNC(=O)c1ccc(/C=C/C(=O)NCC(=O)N(C)c2ccc(Cl)c(COc3cccc4cnc(C)nc34)c2Cl)cc1", "pIC50", "=", 6.96),
    ("CNC(=O)c1ccc(/C=C/C(=O)NCC(=O)N(C)c2ccc(Cl)c(COc3cccc4ccc(C)nc34)c2Cl)cn1", "pIC50", "=", 9.17),
    ("CCn1c(C)nc2c(OCc3c(Cl)ccc(N(C)C(=O)CNC(=O)/C=C/c4ccc(C(=O)NC)cc4)c3Cl)cccc21", "pIC50", "=", 8.05),
    ("Cc1ccc2cccc(OCc3c(Cl)ccc(N(C)C(=O)CNC(=O)/C=C/c4ccc(C(=O)Nc5ccncc5)cc4)c3Cl)c2n1", "pIC50", "=", 8.96),
    ("COc1nc2c(OCc3c(Cl)ccc(N(C)C(=O)CNC(=O)/C=C/c4ccc(C(=O)N(C)C)cc4)c3Cl)cccc2n1C", "pIC50", "=", 9.03),
    ("COc1nc2c(OCc3c(C)ccc(N(C)C(=O)CNC(=O)/C=C/c4ccc(NC(C)=O)nc4)c3C)cccc2n1C", "pIC50", "=", 9.03),
    ("CCOC(=O)Cc1nc2c(OCc3c(C)ccc(N(C)C(=O)CNC(=O)/C=C/c4ccc(C(=O)NC)cc4)c3C)cccc2n1C", "pIC50", "=", 5.96),
]
